Compiled from multiple publications: pIC50 readings for Cytochrome P450 26A1 (Homo sapiens, UniProt O43174).
Target: Cytochrome P450 26A1 (Homo sapiens, UniProt O43174)
Sequence (O43174 whole entry): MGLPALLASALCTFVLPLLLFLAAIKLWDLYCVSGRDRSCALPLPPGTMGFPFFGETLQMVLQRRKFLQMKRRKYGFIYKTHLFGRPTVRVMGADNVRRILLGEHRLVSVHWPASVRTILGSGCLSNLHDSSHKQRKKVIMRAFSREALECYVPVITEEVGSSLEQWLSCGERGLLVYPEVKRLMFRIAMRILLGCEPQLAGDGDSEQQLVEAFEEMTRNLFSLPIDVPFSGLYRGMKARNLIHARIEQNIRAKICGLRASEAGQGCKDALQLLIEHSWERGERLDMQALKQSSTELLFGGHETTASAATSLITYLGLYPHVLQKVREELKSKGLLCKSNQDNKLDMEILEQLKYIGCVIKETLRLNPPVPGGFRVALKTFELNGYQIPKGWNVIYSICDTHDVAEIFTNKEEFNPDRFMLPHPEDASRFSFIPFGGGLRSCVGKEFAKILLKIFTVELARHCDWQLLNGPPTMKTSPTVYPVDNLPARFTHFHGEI
pIC50 (log units): -log10 of the concentration in mol/L.

See these solved cases before continuing.
CC1(C)CCC(C)(C)c2cc(Sc3ccc(CC(=O)O)cc3)ccc21 : 4.97
C=C(c1ccc(C(=O)O)cc1)c1cc2c(cc1C)C(C)(C)CCC2(C)C : 4.87
COC(=O)COc1ccc(COc2ccc3cc(C(C(C)N(C)C)n4ccnc4)ccc3c2)cc1 (stereo in doubt; anti) : 6.82
CC(C(c1ccc2cc(OCc3ccc(C(=O)O)cc3)ccc2c1)n1ccnc1)N(C)C (stereo in doubt; anti) : 7.92
CC1(C)CCC(C)(C)c2cc(C3(c4ccc5cc(C(=O)O)ccc5c4)SCCS3)ccc21 : 7.22

Ask | Reported pIC50 for CC(C(c1ccc2cc(OCc3ccc(OC(C)(C)C)cc3)ccc2c1)n1ccnc1)N(C)C (stereo in doubt; syn) : what is it?
Reply | 7.47

Ask | Fill blank: measured pIC50 of the compound CC(C(c1ccc2cc(OCc3cccc(C(=O)O)c3)ccc2c1)n1ccnc1)N(C)C (stereo in doubt; anti) is ____.
Reply | 8.20

Ask | GET /values?readout=pIC50&item= `CC1(C)CCC(C)(C)c2cc(C(=O)COc3ccc(C(=O)O)cc3)ccc21`
Reply | 5.40

Ask | # get_value(readout='pIC50', item= `CC1(C)CCC(C)(C)c2cc(Cc3ccc(CCC(=O)O)cc3)ccc21` )
Reply | 5.78

Ask | Returns the measured pIC50 for the input compound. Input: CC(C(c1ccc2cc(OCc3ccc(C#N)cc3)ccc2c1)n1ccnc1)N(C)C (stereo in doubt; anti)
Reply | 7.15

Ask | Reported pIC50, compound Clc1cccc(C(c2ccc3nc[nH]c3c2)N2C=NCC2)c1 (stereo not given) : ____
Reply | 5.66

Ask | Tell me the measured pIC50 of COC(=O)c1ccc(COc2ccc3cc(C(C(C)N(C)C)n4ccnc4)ccc3c2)cc1 (stereo in doubt; syn) , please.
Reply | 7.80

Ask | # query: pIC50 of entry CC(C(c1ccc2cc(OCc3cccc(C(=O)N(C)C)c3)ccc2c1)n1ccnc1)N(C)C (stereo not given)
Reply | 7.84

Ask | Which measured pIC50 value corresponds to COC(=O)c1cccc(COc2ccc3cc(C(C(C)N(C)C)n4ccnc4)ccc3c2)c1 (stereo in doubt; anti) ?
Reply | 7.74

Ask | Quick one: pIC50 of CNC(=O)C(C)(C)COc1ccc2cc(C(C(C)N(C)C)n3ccnc3)ccc2c1 (stereo not given) ?
Reply | 7.27
